List of intestinal lumen decay rate constant values.
Experiment: Stability in intestinal lumen (decay rate)
Format: in vitro ADME
Details: Human
Write the answer as a number in min⁻¹, unit excluded.

# Compound, intestinal lumen decay rate constant (min⁻¹)
rows = [
    ("COc1ccc2cc([C@H](C)C(=O)OCCCCO[N+](=O)[O-])ccc2c1", 0),
    ("COc1ccc2cc(C(C)C(=O)OCOC(=O)C(CCC(=O)OCON=[N+]([O-])N(C)C)NC(=O)C(C)(C)C)ccc2c1 (stereo not shown)", 0.67),
    ("COc1ccc2cc(C(C)C(=O)OCON=[N+]([O-])N3CCCC3)ccc2c1 (stereo not shown) [PYRO-NO-NAP, pyrrolidino-diazeniumdiolate-naproxen]", 0.025),
]

We next turn to a different compound, shown below.
Briefly, intestinal lumen decay rate constant measured for COc1ccc2cc(C(C)C(=O)OCOC(=O)CCC(NC(=O)C(C)(C)C)C(=O)OCON=[N+]([O-])N(C)C)ccc2c1 (stereo not shown) : 0.2

----------
Assay: Serum nitrate concentration (NO release) after oral dosing
Format: in vivo, rat
Conditions: male Wistar rats, oral gavage, at 6 hours
Procedure: Table 1 is a summary of the protocol for a study which was conducted in male Wistar rats weighing 275-300 grams. The animals were allowed to acclimatize for at least five days prior to the commencement of the study. The study protocol was approved by the local animal ethics committee. The animals were fasted overnight prior to test substance administration. The test substance was administered orally by gavage on the morning of the study day. […]
Measurement label: Serum Nitrate Concentrations, Mean
# respond with the number and nothing more

Recorded results for 3 molecules are shown here.
# Molecule, Serum Nitrate Concentrations, Mean
data = [
    ("COc1ccc2cc(C(C)C(=O)OCON=[N+]([O-])N(C)C)ccc2c1 (centres unmarked) [DMA-NO-NAP, dimethylamino-diazeniumdiolate-naproxen]", 768.000),
    ("COc1ccc2cc([C@H](C)C(=O)OCCCCO[N+](=O)[O-])ccc2c1", 460.667),
    ("COc1ccc2cc([C@H](C)C(=O)O)ccc2c1", 55.167),
]

The molecule listed as COc1ccc2cc(C(C)C(=O)OCON=[N+]([O-])N3CCCC3)ccc2c1 (centres unmarked) [PYRO-NO-NAP, pyrrolidino-diazeniumdiolate-naproxen] has a reported Serum Nitrate Concentrations, Mean of 389.000

Lab book: Serum Nitrate Concentrations, Mean of CS(=O)(=O)c1ccc(C2=C(c3ccccc3)C(=O)OC2)cc1 noted as 55.818

----------
As shown below, each of these molecules has a reported Ulcer Indices, Mean value.
Tested on: male Wistar rats
Assay: Gastric ulcer index after oral dosing
Assay type: in vivo, rat
Settings: oral gavage, naproxen 250 mg/kg or molar equivalent (ROF 250 mg/kg), 6 h after dosing, mean aggregate gastric ulcer length
Would you mind answering with just the numeric figure?

Some solved entries appear below for comparison.
# Molecule, Measurement label, Recorded measurement
measured = [
    ("COc1ccc2cc(C(C)C(=O)OCON=[N+]([O-])N(C)C)ccc2c1 (centres unmarked) [DMA-NO-NAP, dimethylamino-diazeniumdiolate-naproxen]", "Ulcer Indices, Mean", 1.695),
    ("CS(=O)(=O)c1ccc(C2=C(c3ccccc3)C(=O)OC2)cc1", "Ulcer Indices, Mean", 0.000),
    ("COc1ccc2cc([C@H](C)C(=O)O)ccc2c1", "Ulcer Indices, Mean", 4.282),
    ("COc1ccc2cc(C(C)C(=O)OCON=[N+]([O-])N3CCCC3)ccc2c1 (centres unmarked) [PYRO-NO-NAP, pyrrolidino-diazeniumdiolate-naproxen]", "Ulcer Indices, Mean", 1.450),
]

Pending molecule:
With male Wistar rats as the test system, COc1ccc2cc([C@H](C)C(=O)OCCCCO[N+](=O)[O-])ccc2c1 showed Ulcer Indices, Mean of 3.444
